Catalogue of pKd values
Test: Binding affinity to Mycobacterium tuberculosis APS reductase
// field semantics: pKd = negative decimal log of concentration (mol/L)

O=C1c2cc(F)ccc2-c2cc(F)c([N+](=O)[O-])cc21: 4.35

Task: Any idea what pKd was measured for `O=[N+]([O-])c1ccc(Sc2cccc[n+]2[O-])c2nonc12` ?
Result: 4.71

Task: Any idea what pKd was measured for `Nc1nc(Sc2ccc([N+](=O)[O-])c3nonc23)c2nc[nH]c2n1` ?
Result: 4.82

Task: Any idea what pKd was measured for `CC(=O)[C@H]1CC[C@H]2C34C=C[C@]5(C[C@@H](O)CC[C@]5(C)C3=CC[C@]12C)[C@H](C(=O)O)[C@@H]4C(=O)O` ?
Result: 3.90

Task: Any idea what pKd was measured for `O=C1C(=O)c2cc([N+](=O)[O-])ccc2-c2ccccc21` ?
Result: 5.17

Task: Any idea what pKd was measured for `O=C1c2ccccc2-c2c1cc([N+](=O)[O-])cc2[N+](=O)[O-]` ?
Result: 4.32
